Value source: the supplement of paper PMC10981050

# Tested on: MARIMO
# MEASUREMENT_NOTES: cell viability relative to vehicle control; higher = less cytotoxic;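 note: after 48 h exposure read by CellTiter-Glo luminescence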
# EXPERIMENTAL_PARAMETERS: 10 µM; SRSF2 genotype: SRSF2 P95H/wt
Below, each of the compounds is paired with its reported cell viability value.
Answer in %, number only, no unit symbol.

{"SMILES_REPR": "CC[C@H]1OC(=O)[C@H](C)[C@@H](O[C@H]2C[C@@](C)(OC)[C@@H](O)[C@H](C)O2)[C@H](C)[C@@H](O[C@@H]2O[C@H](C)C[C@H](N(C)C)[C@H]2O)[C@](C)(O)C[C@@H](C)CN(C)[C@H](C)[C@@H](O)[C@]1(C)O", "TARGET": "MARIMO", "cell viability [%]": 83.2}
{"SMILES_REPR": "Cc1ccc(S(=O)(=O)C=CC#N)cc1", "TARGET": "MARIMO", "cell viability [%]": 0.37}

Next up:
Per the record, "CS(=O)(=O)CCNCc1ccc(-c2ccc3ncnc(Nc4ccc(OCc5cccc(F)c5)c(Cl)c4)c3c2)o1" has cell viability of 83.2

* * *

# Test system: K562
# MEASUREMENT_NOTES: cell viability relative to vehicle control; higher = less cytotoxic
# EXPERIMENTAL_PARAMETERS: 10 µM; SRSF2 genotype: SRSF2 wt/wt
Structures can show the parent of a compound that is named as a salt.
OBSERVATION_TYPE: cell viability (%)
Respond numerically; units are % and should not be typed.

Recorded results for 5 molecules are shown here.
{"MOLECULE": "C[C@@H]1CN(c2c(F)c(N)c3c(=O)c(C(=O)O)cn(C4CC4)c3c2F)C[C@H](C)N1", "TARGET": "K562", "cell viability (%)": 108}
{"MOLECULE": "CCOC(=O)C1=C(COCCN)NC(C)=C(C(=O)OC)[C@@H]1c1ccccc1Cl", "TARGET": "K562", "cell viability (%)": 77}
{"MOLECULE": "COc1cc(CCC(=O)CC(=O)CCc2ccc(O)c(OC)c2)ccc1O [Tetrahydrocurcumin]", "TARGET": "K562", "cell viability (%)": 89.2}
{"MOLECULE": "O=C(CCCCCN1C(=O)c2cccc3cccc(c23)C1=O)NO", "TARGET": "K562", "cell viability (%)": 11.4}
{"MOLECULE": "CC1(C)O[C@H]2CC(=O)OC[C@]23[C@H]2CC[C@@]4(C)[C@H](c5ccoc5)OC(=O)[C@H]5O[C@]54[C@]2(C)C(=O)C[C@@H]13", "TARGET": "K562", "cell viability (%)": 109}

Entry "CNC(=O)c1ccccc1Nc1nc(Nc2ccc(N3CCOCC3)cc2OC)ncc1Cl" ; cell viability = 113

Briefly, cell viability measured for "CN1CCc2nc(C(=O)N[C@@H]3C[C@@H](C(=O)N(C)C)CC[C@@H]3NC(=O)C(=O)Nc3ccc(Cl)cn3)sc2C1" : 92.5

Kindly note the recorded cell viability for COc1cc(OC)c(C(=O)CCCN2CCCC2)c(OC)c1 [Buflomedil HCl] , which is 108

Value of measured cell viability for the entry "CC(C)(C)C(=O)OCOP(=O)(COCCn1cnc2c(N)ncnc21)OCOC(=O)C(C)(C)C" : 75.8

Lookup result for "CN[C@@H](C)C(=O)N[C@H](C(=O)N1CCC[C@H]1C(=O)Nc1snnc1-c1ccccc1)C1CCCCC1" ; measured cell viability: 97.7

get_value(item= "C[C@]12C=CC(=O)C=C1CC[C@H]1[C@@H]3C[C@@H](O)[C@](O)(C(=O)CO)[C@@]3(C)C[C@H](O)[C@@]12F" , readout=cell viability) returns 106

// cell viability lookup, molecule = Cc1ccc(NC(=O)c2ccc(CN3CCN(C)CC3)cc2)cc1Nc1nccc(-c2cccnc2)n1 [Imatinib Mesylate (STI571)] , result: 16.7

// cell viability value for "COCCOc1ccc2c(c1)ncn2-c1ccc2cccc(N3CCC(N)CC3)c2n1" : 63.5

molecule "COC(=O)c1c2c(c3ccccc3c1O)OC(C)(C)C=C2" , cell viability observed: 79.6

# cell viability of "O=c1ccn([C@@H]2O[C@H](CO)[C@@H](O)[C@H]2O)c(=O)[nH]1" = 94.1

cell viability measured on CC(C)C(NC(=O)c1ccc2ccccc2n1)C(=O)NC(CC(=O)O)C(=O)COc1c(F)cccc1F (stereo unspecified) = 97.3
